Taken from patent US12600732B2.

Reported AUC is given for each of the following compounds.
Test: Compound plasma exposure in cyno DRF study
Assay type: in vivo
Conditions: cynomolgus monkey, po, 10 mg/kg, 10 mg/kg PO, 14 days of dosing
Form entry: enter the amount, then its unit.

compound | AUC
CN1CCN([C@@H]2CCCN(c3cnc(C(N)=O)c(Nc4ccc(C5CCN(C[C@H]6CCN(c7ccc8c(c7)C(=O)N(C7CCC(=O)NC7=O)C8=O)C6)CC5)cc4)n3)C2)C1=O (stereo partly drawn) | 0.467 µM·h
NC(=O)c1ncc(N2CCCCC2)nc1Nc1ccc(C2CCN(C[C@@H]3CCN(c4ccc5c(c4)C(=O)N(C4CCC(=O)NC4=O)C5=O)C3)CC2)cc1 (stereo partly drawn) | 0.763 µM·h

Prompt: Quickly give me recorded AUC for CN1CCN([C@H]2CCCN(c3cnc(C(N)=O)c(Nc4ccc(C5CCN(CC6CCN(c7ccc(C(=O)NC8CCC(=O)NC8=O)nc7)CC6)CC5)cc4)n3)C2)C1=O (stereo partly drawn)
Completion: 0.387 µM·h

* * *

Target: Ikaros (Homo sapiens, UniProt Q13422+Q96SW2)
Construct: endogenous in cells; host or cells: Mino, Rec-1
Sequence (Q13422 whole entry): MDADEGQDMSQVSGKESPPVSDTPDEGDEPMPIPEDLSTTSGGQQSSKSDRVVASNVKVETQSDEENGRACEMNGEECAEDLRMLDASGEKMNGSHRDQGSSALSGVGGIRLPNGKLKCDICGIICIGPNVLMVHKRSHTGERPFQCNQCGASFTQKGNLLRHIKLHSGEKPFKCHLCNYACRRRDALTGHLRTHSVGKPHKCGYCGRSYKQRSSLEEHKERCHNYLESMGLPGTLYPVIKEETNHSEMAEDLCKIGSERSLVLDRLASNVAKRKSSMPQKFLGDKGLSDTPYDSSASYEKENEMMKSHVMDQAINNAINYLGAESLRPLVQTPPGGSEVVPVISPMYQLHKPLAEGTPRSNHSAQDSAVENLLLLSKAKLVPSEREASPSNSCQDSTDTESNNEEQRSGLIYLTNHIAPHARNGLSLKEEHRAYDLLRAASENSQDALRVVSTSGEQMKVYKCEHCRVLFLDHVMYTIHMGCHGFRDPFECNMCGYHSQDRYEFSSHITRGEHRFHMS
Sequence (Q96SW2 whole entry): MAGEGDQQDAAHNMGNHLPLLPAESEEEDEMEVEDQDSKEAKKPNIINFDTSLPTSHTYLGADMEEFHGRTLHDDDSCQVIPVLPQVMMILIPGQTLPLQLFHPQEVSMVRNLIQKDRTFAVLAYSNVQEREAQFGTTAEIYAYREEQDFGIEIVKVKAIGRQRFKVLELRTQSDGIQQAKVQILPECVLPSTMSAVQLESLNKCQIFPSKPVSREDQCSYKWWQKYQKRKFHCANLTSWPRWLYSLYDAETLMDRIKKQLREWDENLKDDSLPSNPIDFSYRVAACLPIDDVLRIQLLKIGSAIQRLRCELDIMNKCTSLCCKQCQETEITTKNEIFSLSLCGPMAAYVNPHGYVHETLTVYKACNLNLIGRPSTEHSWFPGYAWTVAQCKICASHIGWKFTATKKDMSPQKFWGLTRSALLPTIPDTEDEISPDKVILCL
Sequence (Q16531 whole entry partner): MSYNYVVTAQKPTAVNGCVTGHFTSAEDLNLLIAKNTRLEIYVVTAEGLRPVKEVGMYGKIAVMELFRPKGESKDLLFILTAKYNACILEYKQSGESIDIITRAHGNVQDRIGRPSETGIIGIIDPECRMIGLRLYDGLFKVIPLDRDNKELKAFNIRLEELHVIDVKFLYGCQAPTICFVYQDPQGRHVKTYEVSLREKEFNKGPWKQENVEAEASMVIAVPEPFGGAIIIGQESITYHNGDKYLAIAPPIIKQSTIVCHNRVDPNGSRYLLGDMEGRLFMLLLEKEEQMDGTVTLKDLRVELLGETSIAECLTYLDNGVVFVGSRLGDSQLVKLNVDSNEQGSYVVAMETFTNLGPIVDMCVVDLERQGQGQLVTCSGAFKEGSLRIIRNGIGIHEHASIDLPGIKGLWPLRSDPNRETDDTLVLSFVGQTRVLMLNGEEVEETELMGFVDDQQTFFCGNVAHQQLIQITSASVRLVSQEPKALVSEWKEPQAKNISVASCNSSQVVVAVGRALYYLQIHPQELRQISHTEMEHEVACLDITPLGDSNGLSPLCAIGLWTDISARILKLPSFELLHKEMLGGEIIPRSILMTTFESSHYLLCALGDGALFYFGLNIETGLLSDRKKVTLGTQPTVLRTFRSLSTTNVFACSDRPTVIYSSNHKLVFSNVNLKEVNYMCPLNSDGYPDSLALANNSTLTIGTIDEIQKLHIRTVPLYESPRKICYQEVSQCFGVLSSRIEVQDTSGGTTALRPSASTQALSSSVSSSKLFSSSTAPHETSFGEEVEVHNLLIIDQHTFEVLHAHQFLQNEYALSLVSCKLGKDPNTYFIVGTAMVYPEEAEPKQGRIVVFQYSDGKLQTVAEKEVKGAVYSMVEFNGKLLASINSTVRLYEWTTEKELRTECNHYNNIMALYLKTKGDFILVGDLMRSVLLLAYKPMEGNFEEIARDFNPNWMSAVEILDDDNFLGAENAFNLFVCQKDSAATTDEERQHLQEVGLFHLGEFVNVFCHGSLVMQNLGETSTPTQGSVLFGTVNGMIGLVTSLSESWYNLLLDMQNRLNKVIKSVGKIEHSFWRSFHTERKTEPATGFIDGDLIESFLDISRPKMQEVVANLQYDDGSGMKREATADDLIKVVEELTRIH
Assay: Ikaros degradation in Mantle Cell Lymphoma lines (flow cytometry)
Type: cell-based
Settings: Mino cells, treatment time 24 h
Text: Ikaros and Aiolos Degradation in Mantle Cell Lymphoma Lines (Ikaros and Aiolos Flow Cytometry) This example evaluates the IMiD activity of CTMs in cellular models of Mantle Cell Lymphoma (MCL). […] These assays are to determine potency of CTMs for degrading IMiD neo-substrates in cellular models of MCL and to generate data to inform efficacy studies in MCL xenografts.
attribute-measured: DC50 (nM)
State the answer as a number, implicitly in nM.

Worked examples, 3 molecules total:
molecule | study-system | attribute-measured | obs-value
CN1CCN([C@@H]2CCCN(c3cnc(C(N)=O)c(Nc4ccc(C5CCN(C(=O)CCOCCNc6cccc7c6C(=O)N(C6CCC(=O)NC6=O)C7=O)CC5)cc4)n3)C2)C1=O (some centres unmarked) | Ikaros (Homo sapiens, UniProt Q13422+Q96SW2) | DC50 | 29
NC(=O)c1ncc(N2CCCCC2)nc1Nc1ccc(C2CCN(C[C@@H]3CCN(c4ccc5c(c4)C(=O)N(C4CCC(=O)NC4=O)C5=O)C3)CC2)cc1 (some centres unmarked) | Ikaros (Homo sapiens, UniProt Q13422+Q96SW2) | DC50 | 130
CN1CCN([C@@H]2CCCN(c3cnc(C(N)=O)c(Nc4ccc5c(c4)CCN(C4CN(c6ccc7c(c6)C(=O)N(C6CCC(=O)NC6=O)C7=O)C4)C5)n3)C2)C1=O (some centres unmarked) | Ikaros (Homo sapiens, UniProt Q13422+Q96SW2) | DC50 | 1100

Consider now this further molecule.
Prompt: Param request: DC50 | system Ikaros (Homo sapiens, UniProt Q13422+Q96SW2) | item CN1CCN([C@@H]2CCCN(c3cnc(C(N)=O)c(Nc4ccc(C5CCN(C[C@H]6CCN(c7ccc8c(c7)C(=O)N(C7CCC(=O)NC7=O)C8=O)C6)CC5)cc4)n3)C2)C1=O (some centres unmarked)
Completion: 1400

* * *

Test system: primary human T cells
Assay: T cell activation assay, CD25 and CD69 staining (flow cytometry)
Format: cell-based
Conditions: primary human T cells
attribute-measured: expression of CD25 and CD69 compared to baseline (anti-CD3/anti-CD28 stimulation alone)

compound | obs-value
Nc1cccc2c1C(=O)N(C1CCC(=O)NC1=O)C2=O (stereo not drawn) [Pomalidomide, pomalidomide, reference compound] | increase expression
Nc1cccc2c1CN(C1CCC(=O)NC1=O)C2=O (stereo not drawn) [Lenalidomide, lenalidomide, reference compound] | increase expression

* * *

Experiment: PK data for BTK CTMs (in vivo plasma concentrations)
Details: Rat Sprague-Dawley, 1 mg/kg IV
Use 0.9 µM·h as the dividing line for AUC, with the line itself on the 1 side and lower values as 0.

compound | class-assignment
CN1CCN([C@@H]2CCCN(c3cnc(C(N)=O)c(Nc4ccc(C5CCN(C6CN(c7ccc8c(c7)C(=O)N(C7CCC(=O)NC7=O)C8=O)C6)CC5)cc4)n3)C2)C1=O (some centres unmarked) | 0

Prompt: Quick check: does CN1CCN([C@H]2CCCN(c3cnc(C(N)=O)c(Nc4ccc(C5CCN(CC6CCN(c7ccc(C(=O)NC8CCC(=O)NC8=O)nc7)CC6)CC5)cc4)n3)C2)C1=O (some centres unmarked) have AUC greater than or equal to 0.9 µM·h?
Completion: 0

Prompt: Quick check: does CN1CCN([C@@H]2CCCN(c3cnc(C(N)=O)c(Nc4ccc(C5CN(C6CCN(c7ccc8c(c7)C(=O)N(C7CCC(=O)NC7=O)C8=O)CC6)C5)cc4)n3)C2)C1=O (some centres unmarked) have AUC greater than or equal to 0.9 µM·h?
Completion: 0

Prompt: Quick check: does NC(=O)c1ncc(N2CCCCC2)nc1Nc1ccc(C2CCN(C[C@@H]3CCN(c4ccc5c(c4)C(=O)N(C4CCC(=O)NC4=O)C5=O)C3)CC2)cc1 (some centres unmarked) have AUC greater than or equal to 0.9 µM·h?
Completion: 1

* * *

Reported EMAX (% viable cells) is given for each of the following compounds.
System: TMD8 cells
Test: Cell viability assay (CellTiter-Glo), TMD8 cells
Conditions: TMD8 cells, treatment time 72 h
State the answer as a number, implicitly in %.

Worked examples, 5 compounds total:
compound | EMAX (% viable cells) (%)
CN1CCN([C@H]2CCCN(c3cnc(C(N)=O)c(Nc4cnn(C5CCN(CC6CCN(c7ccc8c(c7)C(=O)N(C7CCC(=O)NC7=O)C8=O)CC6)CC5)c4)n3)C2)C1=O (stereo partly drawn) [Compound 83] | 38
CN1CCN([C@@H]2CCCN(c3cnc(C(N)=O)c(Nc4ccc(N5CCN(C[C@@H]6CCN(c7ccc8c(c7)C(=O)N(C7CCC(=O)NC7=O)C8=O)C6)CC5)cc4)n3)C2)C1=O (stereo partly drawn) [Compound 59] | 31
CN1CCN([C@@H]2CCCN(c3cnc(C(N)=O)c(Nc4ccc(C5CCN(CC6CCN(c7ccc8c(c7)C(=O)N(C7CCC(=O)NC7=O)C8=O)CC6)CC5)cc4)n3)C2)C1=O (stereo partly drawn) [Compound 51] | 20
CN1CCN([C@@H]2CCCN(c3cnc(C(N)=O)c(Nc4ccc(C5CCN(C6CN(c7ccc8c(c7)C(=O)N(C7CCC(=O)NC7=O)C8=O)C6)CC5)cc4)n3)C2)C1=O (stereo partly drawn) [Compound 53] | 16
Cn1cc(Nc2nc(N3CCC[C@@H](N4CC5(CN(CC6CCN(c7ccc8c(c7)C(=O)N(C7CCC(=O)NC7=O)C8=O)CC6)C5)OC4=O)C3)cnc2C(N)=O)cn1 (stereo partly drawn) [compound 211] | 30

Prompt: Quickly give me recorded EMAX (% viable cells) for CN1CCN([C@H]2CCCN(c3cnc(C(N)=O)c(Nc4ccc(C5CCN(CC6CCN(c7ccc(NC8CCC(=O)NC8=O)cn7)CC6)CC5)cc4)n3)C2)C1=O (stereo partly drawn) [Compound 129]
Completion: 16

Prompt: Quickly give me recorded EMAX (% viable cells) for CN1CCN([C@@H]2CCCN(c3cnc(C(N)=O)c(Nc4ccc(C5CN(C6CCN(c7ccc8c(c7)C(=O)N(C7CCC(=O)NC7=O)C8=O)CC6)C5)cc4)n3)C2)C1=O (stereo partly drawn) [Compound 37]
Completion: 10

Prompt: Quickly give me recorded EMAX (% viable cells) for CN1CCN([C@@H]2CCCN(c3cnc(C(N)=O)c(Nc4ccc(C5CCN(C6CN(Cc7ccc8c(c7)C(=O)N(C7CCC(=O)NC7=O)C8=O)C6)CC5)cc4)n3)C2)C1=O (stereo partly drawn) [Compound 101]
Completion: 27

Prompt: Quickly give me recorded EMAX (% viable cells) for CC#CC(=O)N1CCC[C@H]1c1nc(-c2ccc(C(=O)Nc3ccccn3)cc2)c2c(N)nccn12 [Acalabrutinib, acalabrutinib, reference compound]
Completion: 35

Prompt: Quickly give me recorded EMAX (% viable cells) for CN1CCN([C@@H]2CCCN(c3cnc(C(N)=O)c(Nc4ccc(N5CCC6(CC5)CCN(c5ccc7c(c5)C(=O)N(C5CCC(=O)NC5=O)C7=O)CC6)cc4)n3)C2)C1=O (stereo partly drawn) [Compound 55]
Completion: 15

Prompt: Quickly give me recorded EMAX (% viable cells) for O=C(c1ccc(Oc2ccccc2)cc1Cl)c1c[nH]c2ncnc(N[C@@H]3CC[C@@H](CO)OC3)c12 [ARQ531]
Completion: 16

Prompt: Quickly give me recorded EMAX (% viable cells) for CN1CCN([C@@H]2CCCN(c3cnc(C(N)=O)c(Nc4ccc(C5CCN(C[C@H]6CCN(c7ccc8c(=O)n(C9CCC(=O)NC9=O)ccc8c7)C6)CC5)cc4)n3)C2)C1=O (stereo partly drawn) [Compound 115]
Completion: 13

Prompt: Quickly give me recorded EMAX (% viable cells) for CN1CCN([C@@H]2CCCN(c3cnc(C(N)=O)c(Nc4ccc(N5CCN(CCCCc6cccc7c6CN(C6CCC(=O)NC6=O)C7=O)CC5)cc4)n3)C2)C1=O (stereo partly drawn) [Compound 17]
Completion: 7

Prompt: Quickly give me recorded EMAX (% viable cells) for CN1CCN([C@H]2CCCN(c3cnc(C(N)=O)c(Nc4ccc(C5CCN(CC6CCN(c7ccc(C(=O)NC8CCC(=O)NC8=O)nc7)CC6)CC5)cc4)n3)C2)C1=O (stereo partly drawn) [Compound 130]
Completion: 27

Prompt: Quickly give me recorded EMAX (% viable cells) for NC(=O)c1ncc(N2CCCCC2)nc1Nc1ccc(C2CCN(CC3CCN(c4ccc5c(=O)n(C6CCC(=O)NC6=O)ccc5c4)CC3)CC2)cc1 (stereo not drawn) [Compound 133]
Completion: 15
